Please go through the items and note down their Fluorescence intesity.
tested on: peptide-specific IgG in sera of cancer patients and healthy donors; test: Measurement of anti-peptide IgG in plasma by LUMINEX multiplexed flow cytometric assay; type: binding, human; details: serum of Uterine cervical Ca. patient #26, 1:100 dilution

Q) Entry AYELKIANKL (SCCA 98-107 peptide) [SCCA-derived peptide, position 98-107] has what Fluorescence intesity?
A) 166

Count: 5. Required value per item: Fluorescence intesity.
1. RFKVEESYDL (SCCA 286-295 peptide) [SCCA-derived peptide, position 286-295]
2. KFMFDLFQQF (SCCA 10-19 peptide) [SCCA-derived peptide, position 10-19]
3. EFHCNHPFL (SCCA 362-370 peptide) [SCCA-derived peptide, position 362-370]
4. LFGEKTYLFL (SCCA 107-116 peptide) [SCCA-derived peptide, position 107-116]
5. QFQKLLTEF (SCCA 84-92 peptide) [SCCA-derived peptide, position 84-92]

A)
1: 97; 2: 88; 3: 83; 4: 147; 5: 128

Q) Entry EYLDAIKKF (SCCA 118-126 peptide) [SCCA-derived peptide, position 118-126] has what Fluorescence intesity?
A) 106
